target: ΔF508-CFTR (Homo sapiens, UniProt P13569, DEL508-508); construct: expressed in transfected cells; experiment: Membrane potential optical assay (FRET voltage-sensor dyes, VIPR), identification of potentiator compounds; format: cell-based; details: Table 3; assay not given; read-out: % Activity (% Efficacy, relative efficacy)
Sequence (P13569 with tags, fused parts or gaps DEL508-508): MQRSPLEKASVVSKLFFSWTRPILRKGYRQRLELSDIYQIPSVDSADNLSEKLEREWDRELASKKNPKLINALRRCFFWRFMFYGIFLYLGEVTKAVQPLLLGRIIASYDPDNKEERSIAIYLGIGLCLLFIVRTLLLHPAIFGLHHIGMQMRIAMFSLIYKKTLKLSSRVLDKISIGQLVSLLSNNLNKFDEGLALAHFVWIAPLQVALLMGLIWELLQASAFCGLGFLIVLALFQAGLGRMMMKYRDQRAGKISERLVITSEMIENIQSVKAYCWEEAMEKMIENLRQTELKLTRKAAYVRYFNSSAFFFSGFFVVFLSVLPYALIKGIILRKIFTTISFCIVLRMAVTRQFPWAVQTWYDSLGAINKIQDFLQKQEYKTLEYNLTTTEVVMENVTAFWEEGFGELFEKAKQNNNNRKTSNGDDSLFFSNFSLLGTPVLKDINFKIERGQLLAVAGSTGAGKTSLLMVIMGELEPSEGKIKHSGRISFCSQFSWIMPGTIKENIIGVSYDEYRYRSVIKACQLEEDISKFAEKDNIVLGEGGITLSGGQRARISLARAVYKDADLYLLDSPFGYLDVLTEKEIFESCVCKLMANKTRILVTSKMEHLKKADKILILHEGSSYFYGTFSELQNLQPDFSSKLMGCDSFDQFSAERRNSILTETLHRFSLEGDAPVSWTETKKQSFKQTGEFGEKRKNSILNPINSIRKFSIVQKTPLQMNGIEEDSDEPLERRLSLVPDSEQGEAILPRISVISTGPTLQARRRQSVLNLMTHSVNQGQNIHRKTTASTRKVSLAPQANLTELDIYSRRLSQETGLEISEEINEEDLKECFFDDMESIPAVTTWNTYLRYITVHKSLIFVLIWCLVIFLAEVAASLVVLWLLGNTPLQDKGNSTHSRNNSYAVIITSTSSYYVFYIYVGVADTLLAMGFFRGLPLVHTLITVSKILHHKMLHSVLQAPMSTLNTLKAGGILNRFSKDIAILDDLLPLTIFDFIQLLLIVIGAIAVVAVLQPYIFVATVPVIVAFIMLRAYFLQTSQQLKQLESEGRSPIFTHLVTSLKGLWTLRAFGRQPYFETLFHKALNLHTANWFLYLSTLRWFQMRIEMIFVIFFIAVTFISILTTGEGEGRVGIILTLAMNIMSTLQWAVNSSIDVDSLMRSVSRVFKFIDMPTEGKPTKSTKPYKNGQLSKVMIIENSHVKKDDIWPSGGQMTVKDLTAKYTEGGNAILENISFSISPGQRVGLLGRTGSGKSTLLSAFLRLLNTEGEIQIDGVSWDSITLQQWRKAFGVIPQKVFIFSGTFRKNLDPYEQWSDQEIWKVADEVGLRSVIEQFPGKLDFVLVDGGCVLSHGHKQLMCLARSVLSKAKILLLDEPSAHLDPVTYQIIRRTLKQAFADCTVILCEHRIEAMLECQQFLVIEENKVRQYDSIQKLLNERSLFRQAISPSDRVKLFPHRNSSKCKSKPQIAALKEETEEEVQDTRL
Item-by-item account of Emax

>>> readoutvalue("CC1=NN(c2cccc(NC(=O)c3c[nH]c4ccccc4c3=O)c2)C(=O)C1 [Compound 212]")
"< 25%"

Could you share which Emax value was measured for Cc1ccc2[nH]cc(C(=O)Nc3ccc(N4[C@H](C)CC[C@H]4C)cc3C(F)(F)F)c(=O)c2c1 [Compound 569] ?
25 to 100%

Could you share which Emax value was measured for Cc1cccc(C(C)C)c1NC(=O)c1c[nH]c2ccccc2c1=O [Compound 430] ?
25 to 100%

====

Item-by-item account of Emax
biological target: ΔF508-CFTR (Homo sapiens, UniProt P13569, DEL508-508); construct: expressed in transfected cells; assay: Membrane potential optical assay (FRET voltage-sensor dyes, VIPR), identification of potentiator compounds; format: cell-based; settings: Table 3; assay not given; read-out: % Activity (% Efficacy, relative efficacy)

Before answering, review these 3 worked examples.
>>> readoutvalue("CC(C)(C)c1ccc(NC(=O)c2c[nH]c3ccccc3c2=O)cc1N")
"25 to 100%"
>>> readoutvalue("CC(=O)N1CCc2ccc(NC(=O)c3c[nH]c4ccccc4c3=O)cc21")
"< 25%"
>>> readoutvalue("O=C(Nc1cc(N2CCCC2)cc(C(F)(F)F)c1)c1c[nH]c2ccccc2c1=O")
"25 to 100%"

Which measured Emax belongs to `O=C(Nc1ccccc1-c1ccc(OC(F)(F)F)cc1)c1c[nH]c2ccccc2c1=O` , tested on ΔF508-CFTR (Homo sapiens, UniProt P13569, DEL508-508)?
25 to 100%

Which measured Emax belongs to `CS(=O)(=O)c1ccc(-c2ccccc2NC(=O)c2c[nH]c3ccccc3c2=O)cc1` , tested on ΔF508-CFTR (Homo sapiens, UniProt P13569, DEL508-508)?
25 to 100%

Which measured Emax belongs to `O=C(Nc1ccc(N2CC[C@H](O)C2)cc1C(F)(F)F)c1c[nH]c2ccccc2c1=O` , tested on ΔF508-CFTR (Homo sapiens, UniProt P13569, DEL508-508)?
25 to 100%

====

target: ΔF508-CFTR (Homo sapiens, UniProt P13569, DEL508-508); construct: expressed in transfected cells; assay: Membrane potential optical assay (FRET voltage-sensor dyes, VIPR), identification of potentiator compounds; assay type: cell-based; details: Table 3; assay not given; read-out: % Activity (% Efficacy, relative efficacy)
Item-by-item account of Emax

Before answering, review these 2 worked examples.
>>> readoutvalue("O=C(Nc1ccc(C(F)(F)F)cc1N1CCCCC1)c1c[nH]c2ccccc2c1=O")
"25 to 100%"
>>> readoutvalue("O=C(Nc1ccc2c(c1)OCO2)c1c[nH]c2ccccc2c1=O")
"< 25%"

Which measured Emax belongs to `CC(C)c1ccc(-c2ccccc2NC(=O)c2c[nH]c3ccccc3c2=O)cc1` , tested on ΔF508-CFTR (Homo sapiens, UniProt P13569, DEL508-508)?
25 to 100%

Which measured Emax belongs to `CSc1ccccc1-c1ccccc1NC(=O)c1c[nH]c2ccccc2c1=O` , tested on ΔF508-CFTR (Homo sapiens, UniProt P13569, DEL508-508)?
25 to 100%

====

target: ΔF508-CFTR (Homo sapiens, UniProt P13569, DEL508-508); construct: expressed in transfected cells; assay: Membrane potential optical assay (FRET voltage-sensor dyes, VIPR), identification of potentiator compounds; format: cell-based; conditions: Table 3; assay not given; read-out: % Activity (% Efficacy, relative efficacy)
Item-by-item account of Emax

Before answering, review these 5 worked examples.
>>> readoutvalue("Cc1cccc2[nH]cc(C(=O)Nc3cc(O)c(C4(C)CCCCC4)cc3F)c(=O)c12")
"25 to 100%"
>>> readoutvalue("CC(C)(C)c1cc2cc[nH]c2cc1NC(=O)c1c[nH]c2ccc(O)cc2c1=O")
"25 to 100%"
>>> readoutvalue("O=C(Nc1ccccc1-c1ccccc1OC(F)(F)F)c1c[nH]c2ccccc2c1=O")
"25 to 100%"
>>> readoutvalue("Cn1c(=O)oc2ccc(NC(=O)c3c[nH]c4ccccc4c3=O)cc21")
"< 25%"
>>> readoutvalue("CC(C)(C)c1cccc(NC(=O)c2c[nH]c3ccc(F)cc3c2=O)c1")
"25 to 100%"

Could you share which Emax value was measured for `O=C(Nc1ccc(C(F)(F)F)cc1Cl)c1c[nH]c2ccccc2c1=O` ?
25 to 100%

Could you share which Emax value was measured for `O=C(Nc1ccccc1Cl)c1c[nH]c2ccccc2c1=O` ?
25 to 100%

Could you share which Emax value was measured for `COc1nc(NC(=O)c2c[nH]c3ccccc3c2=O)ccc1C(F)(F)F` ?
< 25%

Could you share which Emax value was measured for `O=C(Nc1cccn2ncnc12)c1c[nH]c2ccccc2c1=O` ?
< 25%

Could you share which Emax value was measured for `CC(=O)Nc1cc(NC(=O)c2c[nH]c3ccccc3c2=O)cc(C(F)(F)F)c1` ?
25 to 100%

Could you share which Emax value was measured for `Cc1cccc(-c2ccccc2NC(=O)c2c[nH]c3ccccc3c2=O)c1` ?
25 to 100%

Could you share which Emax value was measured for `Cc1c[nH]c2cccc(NC(=O)c3c[nH]c4ccccc4c3=O)c12` ?
25 to 100%

====

Item-by-item account of Emax
biological target: ΔF508-CFTR (Homo sapiens, UniProt P13569, DEL508-508); construct: expressed in transfected cells; assay: Membrane potential optical assay (FRET voltage-sensor dyes, VIPR), identification of potentiator compounds; type: cell-based; details: Table 3; assay not given; read-out: % Activity (% Efficacy, relative efficacy)
Source text: […]

>>> readoutvalue("N#Cc1ccc(-c2ccccc2NC(=O)c2c[nH]c3ccccc3c2=O)s1 [Compound 93]")
"25 to 100%"
>>> readoutvalue("CC(C)c1ccccc1NC(=O)c1c[nH]c2ccccc2c1=O [Compound 36]")
"25 to 100%"
>>> readoutvalue("O=C(Nc1ccc(C2CCCCC2)cc1)c1c[nH]c2ccccc2c1=O [Compound 140]")
"25 to 100%"

Which measured Emax belongs to CCOc1cccc2c(=O)c(C(=O)Nc3cc(O)c(C(C)(C)C)cc3C(C)(C)C)c[nH]c12 [Compound 616] , tested on ΔF508-CFTR (Homo sapiens, UniProt P13569, DEL508-508)?
< 25%

Which measured Emax belongs to CC(C)n1cc(C(=O)Nc2ccccc2C(C)(C)C)c(=O)c2ccccc21 [Compound 473] , tested on ΔF508-CFTR (Homo sapiens, UniProt P13569, DEL508-508)?
25 to 100%

====

target: ΔF508-CFTR (Homo sapiens, UniProt P13569, DEL508-508); construct: expressed in transfected cells; assay: Membrane potential optical assay (FRET voltage-sensor dyes, VIPR), identification of potentiator compounds; format: cell-based; conditions: Table 3; assay not given; read-out: % Activity (% Efficacy, relative efficacy)
experimentalReadout: Emax

>>> readoutvalue("CC(C)(C)c1cc(C(C)(C)C)c(NC(=O)c2c[nH]c3c(C#N)cccc3c2=O)cc1O")
"< 25%"
>>> readoutvalue("C[S+]([O-])c1ccc(-c2ccccc2NC(=O)c2c[nH]c3ccccc3c2=O)cc1 (centres unmarked)")
"25 to 100%"
>>> readoutvalue("Cc1ccc2c(=O)c(C(=O)Nc3cc(O)c(C(C)(C)C)cc3C(C)(C)C)c[nH]c2c1")
"> 100%"

Could you now look at the following compound, please?
Could you share which Emax value was measured for `O=C(Nc1ccc(N2CCC[C@@H]2C(=O)O)cc1C(F)(F)F)c1c[nH]c2ccccc2c1=O` ?
25 to 100%

====

target: ΔF508-CFTR (Homo sapiens, UniProt P13569, DEL508-508); construct: expressed in transfected cells; experiment: Membrane potential optical assay (FRET voltage-sensor dyes, VIPR), identification of potentiator compounds; type: cell-based; settings: Table 3; assay not given; read-out: % Activity (% Efficacy, relative efficacy)
experimentalReadout: Emax

Before answering, review these 4 worked examples.
>>> readoutvalue("O=C(Nc1ccc2cc[nH]c2c1)c1cnc2cc(C(F)(F)F)cc(C(F)(F)F)c2c1O")
"25 to 100%"
>>> readoutvalue("NC(=O)c1cccc(NC(=O)c2c[nH]c3ccccc3c2=O)c1")
"< 25%"
>>> readoutvalue("CC(C)(C)c1cc(C(C)(C)C)c(NC(=O)c2c[nH]c3c(F)ccc(F)c3c2=O)cc1O")
"25 to 100%"
>>> readoutvalue("Cc1ccc(S(=O)(=O)Nc2ccccc2NC(=O)c2c[nH]c3ccccc3c2=O)cc1")
"25 to 100%"

Could you share which Emax value was measured for `N#Cc1cc2ccc(NC(=O)c3c[nH]c4ccccc4c3=O)cc2[nH]1` ?
25 to 100%

Could you share which Emax value was measured for `O=C(Nc1ccc2ccccc2c1)c1c[nH]c2ccccc2c1=O` ?
25 to 100%
